target: LNX1_2, Q8TBB1; assay: holdup assay; parameters: key: below the threshold = too weak to quantify, mostly under pKd 3.1 to 4; settings: plain residues with an end cap or a label only (N-terminal biotin on a linker: ttds)
Sequence (Q8TBB1 371-470): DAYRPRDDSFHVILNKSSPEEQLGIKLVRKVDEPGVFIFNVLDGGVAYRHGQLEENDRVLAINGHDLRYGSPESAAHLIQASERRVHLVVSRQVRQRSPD
outcome_measure: pKd

KLVIKTETTV [RASSF6, Q6ZTQ3] | 3.66
QRPYRRESEI [KCNJ12, Q14500] | below the threshold
SHSSKGETAV [FZD7, O75084] | below the threshold
KQVVPFSSSV [GDA, Q9Y2T3] | below the threshold
